Value source: patent US4910214A

Biological target: presynaptic α2 -adrenoceptors (Mus musculus)
Construct: isolated, electrically stimulated mouse was deferens preparation; from tissue; host or cells: mouse vas deferens
Sequence (Q01338 1-465): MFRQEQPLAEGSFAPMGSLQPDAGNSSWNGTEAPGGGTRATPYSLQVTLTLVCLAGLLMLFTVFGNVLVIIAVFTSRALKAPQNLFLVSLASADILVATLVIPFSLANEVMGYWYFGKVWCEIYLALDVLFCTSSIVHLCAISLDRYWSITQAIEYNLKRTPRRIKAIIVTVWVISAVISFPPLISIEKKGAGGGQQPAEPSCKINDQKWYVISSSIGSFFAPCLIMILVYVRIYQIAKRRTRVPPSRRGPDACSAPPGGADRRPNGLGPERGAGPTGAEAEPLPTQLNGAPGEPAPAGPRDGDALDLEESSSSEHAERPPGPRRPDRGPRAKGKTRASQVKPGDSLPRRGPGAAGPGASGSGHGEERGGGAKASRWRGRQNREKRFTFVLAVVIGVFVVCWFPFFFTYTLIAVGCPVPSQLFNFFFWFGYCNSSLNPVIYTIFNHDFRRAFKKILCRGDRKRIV
Experiment: α2-agonism in vitro, isolated electrically stimulated mouse vas deferens
Type: cell-based
Conditions: negative log of molar concentration producing 50 percent of maximal inhibition of electrically induced contractions; read-out: α2 -agonism in vitro (mouse vas deferens). pD2 (converted)
measurement label: EC50 (nM)

[
  {
    "compound": "Clc1cccc(Cl)c1N=C1NCCN1 [clonidine, reference compound]",
    "measurement unit": "nM",
    "test result": 3.16
  },
  {
    "compound": "Cc1cccc([C@H](C)c2cnc[nH]2)c1C [d-enantiomer]",
    "measurement unit": "nM",
    "test result": 0.501
  },
  {
    "compound": "Cc1cccc([C@@H](C)c2cnc[nH]2)c1C [1-enantiomer]",
    "measurement unit": "nM",
    "test result": 1000
  },
  {
    "compound": "Cc1cccc(Cc2c[nH]cn2)c1C",
    "measurement unit": "nM",
    "test result": 3.16
  },
  {
    "compound": "Cc1cccc(C(C)c2cnc[nH]2)c1C (racemic)",
    "measurement unit": "nM",
    "test result": 1
  }
]
